target: human ether-à-go-go-related gene (hERG) potassium channel (human, UniProt Q12809); assay: primary screen, population patch clamp on CHO cells stably expressing hERG; higher = less effect of the substance;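 note: peak tail current of the secondary pulse compared with the same well before compound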
Sequence (Q12809 whole entry, looked up): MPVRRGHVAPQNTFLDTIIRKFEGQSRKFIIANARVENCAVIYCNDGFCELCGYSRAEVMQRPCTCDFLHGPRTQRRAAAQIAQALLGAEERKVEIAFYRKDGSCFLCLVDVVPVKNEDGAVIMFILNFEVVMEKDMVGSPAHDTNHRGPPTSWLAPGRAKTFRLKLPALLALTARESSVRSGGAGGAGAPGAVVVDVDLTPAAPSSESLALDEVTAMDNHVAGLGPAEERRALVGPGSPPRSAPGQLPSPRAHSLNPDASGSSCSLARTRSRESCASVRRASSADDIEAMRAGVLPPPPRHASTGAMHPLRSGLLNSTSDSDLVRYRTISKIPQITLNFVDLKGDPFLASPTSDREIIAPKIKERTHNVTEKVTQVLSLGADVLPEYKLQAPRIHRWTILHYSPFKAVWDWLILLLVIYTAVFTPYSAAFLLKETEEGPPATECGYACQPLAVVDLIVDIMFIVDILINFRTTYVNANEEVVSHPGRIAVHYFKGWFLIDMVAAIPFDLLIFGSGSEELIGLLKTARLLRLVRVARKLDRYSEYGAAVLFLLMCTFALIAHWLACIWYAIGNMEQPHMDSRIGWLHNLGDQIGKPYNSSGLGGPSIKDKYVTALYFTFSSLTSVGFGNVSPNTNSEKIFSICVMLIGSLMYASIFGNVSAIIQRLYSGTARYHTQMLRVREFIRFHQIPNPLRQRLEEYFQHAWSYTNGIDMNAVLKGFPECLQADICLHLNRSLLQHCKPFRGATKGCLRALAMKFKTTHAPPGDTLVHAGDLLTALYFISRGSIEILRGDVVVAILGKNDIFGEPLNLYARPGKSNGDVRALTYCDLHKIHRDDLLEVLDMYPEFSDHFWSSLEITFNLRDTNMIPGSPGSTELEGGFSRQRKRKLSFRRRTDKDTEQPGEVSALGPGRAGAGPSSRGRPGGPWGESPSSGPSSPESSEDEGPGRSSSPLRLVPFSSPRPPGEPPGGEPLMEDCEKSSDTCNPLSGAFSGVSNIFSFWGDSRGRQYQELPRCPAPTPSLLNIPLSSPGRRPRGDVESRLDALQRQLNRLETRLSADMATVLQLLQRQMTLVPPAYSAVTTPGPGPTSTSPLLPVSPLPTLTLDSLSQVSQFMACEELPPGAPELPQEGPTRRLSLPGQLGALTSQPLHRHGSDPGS
About 14,000 (4.5%) of roughly 310,000 compounds showed an effect of 50% or more. The effect is printed as a negative number. For the sample, strong results were picked, then their nearest neighbours and some compounds at random.
Could you please report measured hERG current change (%, negative = inhibition) at 10uM for the items listed next?
A number alone suffices; assume %.

Exercise: Supply recorded hERG current change (%, negative = inhibition) at 10uM for "Cc1cc(NC(=S)NC(=O)c2ccco2)c2ccccc2n1" here.
Solution: -1.51

Exercise: Supply recorded hERG current change (%, negative = inhibition) at 10uM for COc1ccc(CNC(=O)C(C)n2nc(C)c3c(C)n(-c4ccccc4)nc3c2=O)c(OC)c1 (stereo not shown) here.
Solution: -8.08

Exercise: Supply recorded hERG current change (%, negative = inhibition) at 10uM for "COc1ccc(CCC(=O)NCCS(=O)(=O)N2CCN(c3ccccc3F)CC2)cc1" here.
Solution: -63.2

Exercise: Supply recorded hERG current change (%, negative = inhibition) at 10uM for "O=C(NCCS(=O)(=O)N1CCN(c2ccccc2F)CC1)c1ccc(Cl)cc1" here.
Solution: -55.5

Exercise: Supply recorded hERG current change (%, negative = inhibition) at 10uM for CC(C)c1ccc(NC(=O)CNCC(c2ccccc2)N(C)C)cc1 (stereo not shown) here.
Solution: -27.6

Exercise: Supply recorded hERG current change (%, negative = inhibition) at 10uM for "COc1ccc(OC)c(CCNC(=O)Cn2nc(C)c3c(C)n(-c4ccc(C)cc4)nc3c2=O)c1" here.
Solution: -59

Exercise: Supply recorded hERG current change (%, negative = inhibition) at 10uM for COC(=O)C1=C(C(=O)OC)N2C=CC=CC2(C)C(C(=O)OC)=C1C(=O)OC (stereo not shown) here.
Solution: -5.49

Exercise: Supply recorded hERG current change (%, negative = inhibition) at 10uM for "Nn1cnc2cc3ccccc3cc2c1=O" here.
Solution: 8.16

Exercise: Supply recorded hERG current change (%, negative = inhibition) at 10uM for COc1ccc(CCNC(=O)C(C)n2nc(C)c3c(C)n(-c4ccc(C)cc4)nc3c2=O)c(OC)c1 (stereo not shown) here.
Solution: -58.6

Exercise: Supply recorded hERG current change (%, negative = inhibition) at 10uM for COc1ccc(OC)c(CCNC(=O)C(C)n2nc(C)c3c(C)n(-c4ccc(C)cc4)nc3c2=O)c1 (stereo not shown) here.
Solution: -53.2

Exercise: Supply recorded hERG current change (%, negative = inhibition) at 10uM for Cc1ccc(C(C)NC(=O)Cc2cccs2)cc1C (stereo not shown) here.
Solution: -44.2

Exercise: Supply recorded hERG current change (%, negative = inhibition) at 10uM for COc1ccccc1CCNC(=O)C(C)n1nc(C)c2c(C)n(-c3ccccc3)nc2c1=O (stereo not shown) here.
Solution: -12.3

Exercise: Supply recorded hERG current change (%, negative = inhibition) at 10uM for "O=[N+]([O-])c1cc(Cl)cc(/C=N/NC(=S)Nc2ccc(S(=O)(=O)N3CCOCC3)cc2)c1O" here.
Solution: 14.3

Exercise: Supply recorded hERG current change (%, negative = inhibition) at 10uM for "O=c1c(Cc2ccc(Cl)cc2)c(O)ccn1Cc1cccs1" here.
Solution: 4.04

Exercise: Supply recorded hERG current change (%, negative = inhibition) at 10uM for COc1ccc(OC)c(CCNC(=O)C(C)n2nc(C)c3c(C)n(-c4ccccc4)nc3c2=O)c1 (stereo not shown) here.
Solution: -0.756

Exercise: Supply recorded hERG current change (%, negative = inhibition) at 10uM for "CCOP(=O)(O)c1cccc(OCCOCCOc2cccc(P(=O)(O)OCC)c2)c1" here.
Solution: 4.45

Exercise: Supply recorded hERG current change (%, negative = inhibition) at 10uM for "COc1cccc(-c2nc(CS(=O)(=O)CC(=O)NCCc3ccccc3)c(C)o2)c1" here.
Solution: 0.232

Exercise: Supply recorded hERG current change (%, negative = inhibition) at 10uM for "Cc1cccc(Oc2ncc(-c3ccc(Cl)cc3)cn2)c1" here.
Solution: 5.22

Exercise: Supply recorded hERG current change (%, negative = inhibition) at 10uM for "COc1ccc(CCC(=O)NCCS(=O)(=O)N2CCN(c3ccc(OC)cc3)CC2)cc1" here.
Solution: 7.57
